Target: Casein kinase I isoform delta (Homo sapiens); also: in the data inactive means no Kd found up to 30 µM
Sequence (P48730 whole entry, canonical isoform): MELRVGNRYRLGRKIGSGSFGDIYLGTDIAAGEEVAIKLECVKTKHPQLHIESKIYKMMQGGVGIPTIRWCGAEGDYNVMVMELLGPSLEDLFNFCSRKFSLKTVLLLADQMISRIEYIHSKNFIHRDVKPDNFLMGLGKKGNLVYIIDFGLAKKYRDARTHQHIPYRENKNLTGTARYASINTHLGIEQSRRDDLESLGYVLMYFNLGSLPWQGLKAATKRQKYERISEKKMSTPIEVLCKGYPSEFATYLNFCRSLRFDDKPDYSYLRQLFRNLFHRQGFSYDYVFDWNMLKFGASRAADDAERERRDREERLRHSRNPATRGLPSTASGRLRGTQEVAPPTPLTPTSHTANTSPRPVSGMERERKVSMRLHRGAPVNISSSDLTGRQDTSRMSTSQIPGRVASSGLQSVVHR
Activity calls are given as the source filed them.
Thanks in advance; please answer with one of these: active, inactive

Please review the entries below; each comes with its answer.
Nc1ncnc2c1c(-c1cccc(OCc3ccccc3)c1)cn2[C@H]1C[C@@H](CN2CCC2)C1	inactive
O=C(Nc1cc(C(F)(F)F)cc(C(F)(F)F)c1)c1cc(Cl)ccc1O	inactive
C[C@@H](N)c1ccc(C(=O)Nc2ccnc3[nH]ccc23)cc1	inactive

Look up the recorded call for COc1cc([C@@H]2c3cc4c(cc3[C@H](O)[C@H]3COC(=O)[C@@H]23)OCO4)cc(OC)c1OC in this test. inactive

How was CCOc1cc2ncc(C#N)c(Nc3ccc(F)c(Cl)c3)c2cc1NC(=O)/C=C/CN(C)C classified in this test? active

====

Assay read-out Kd; system under study: Serine/threonine-protein kinase 3 (Homo sapiens, UniProt Q13188). Also: in the data inactive means no Kd found up to 30 µM.
Sequence (Q13188 whole entry): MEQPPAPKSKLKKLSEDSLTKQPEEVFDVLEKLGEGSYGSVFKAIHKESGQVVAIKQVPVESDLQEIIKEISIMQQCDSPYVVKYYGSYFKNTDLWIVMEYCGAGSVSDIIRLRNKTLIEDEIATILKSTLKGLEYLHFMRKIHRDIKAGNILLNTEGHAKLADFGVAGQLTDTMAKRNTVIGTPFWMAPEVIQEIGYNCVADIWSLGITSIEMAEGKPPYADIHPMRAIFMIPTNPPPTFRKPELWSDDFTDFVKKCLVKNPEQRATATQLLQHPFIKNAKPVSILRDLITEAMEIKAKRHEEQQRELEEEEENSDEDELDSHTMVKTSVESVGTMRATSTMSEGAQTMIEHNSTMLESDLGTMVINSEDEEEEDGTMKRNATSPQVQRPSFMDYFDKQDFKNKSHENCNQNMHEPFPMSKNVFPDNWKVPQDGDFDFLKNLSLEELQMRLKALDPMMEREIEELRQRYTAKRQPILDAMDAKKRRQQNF
Active and inactive are the calls of the source.

Below: 2 compounds and their reported Kd.
N#CC1(c2ccc(NC(=O)c3cccnc3NCc3ccncc3)cc2)CCCC1	> 30 µM (inactive)
O=C(Nc1nc2cccc(-c3ccc(CN4CCS(=O)(=O)CC4)cc3)n2n1)C1CC1	> 30 µM (inactive)

The record that follows has no Kd shown yet.
What value of Kd has been recorded for this entry: CCOc1cc2ncc(C#N)c(Nc3ccc(F)c(Cl)c3)c2cc1NC(=O)/C=C/CN(C)C > 30 µM (inactive)

====

Biological target: Myosin-10 (Homo sapiens); also: in the data inactive means no Kd found up to 30 µM
Sequence (P35580 whole entry): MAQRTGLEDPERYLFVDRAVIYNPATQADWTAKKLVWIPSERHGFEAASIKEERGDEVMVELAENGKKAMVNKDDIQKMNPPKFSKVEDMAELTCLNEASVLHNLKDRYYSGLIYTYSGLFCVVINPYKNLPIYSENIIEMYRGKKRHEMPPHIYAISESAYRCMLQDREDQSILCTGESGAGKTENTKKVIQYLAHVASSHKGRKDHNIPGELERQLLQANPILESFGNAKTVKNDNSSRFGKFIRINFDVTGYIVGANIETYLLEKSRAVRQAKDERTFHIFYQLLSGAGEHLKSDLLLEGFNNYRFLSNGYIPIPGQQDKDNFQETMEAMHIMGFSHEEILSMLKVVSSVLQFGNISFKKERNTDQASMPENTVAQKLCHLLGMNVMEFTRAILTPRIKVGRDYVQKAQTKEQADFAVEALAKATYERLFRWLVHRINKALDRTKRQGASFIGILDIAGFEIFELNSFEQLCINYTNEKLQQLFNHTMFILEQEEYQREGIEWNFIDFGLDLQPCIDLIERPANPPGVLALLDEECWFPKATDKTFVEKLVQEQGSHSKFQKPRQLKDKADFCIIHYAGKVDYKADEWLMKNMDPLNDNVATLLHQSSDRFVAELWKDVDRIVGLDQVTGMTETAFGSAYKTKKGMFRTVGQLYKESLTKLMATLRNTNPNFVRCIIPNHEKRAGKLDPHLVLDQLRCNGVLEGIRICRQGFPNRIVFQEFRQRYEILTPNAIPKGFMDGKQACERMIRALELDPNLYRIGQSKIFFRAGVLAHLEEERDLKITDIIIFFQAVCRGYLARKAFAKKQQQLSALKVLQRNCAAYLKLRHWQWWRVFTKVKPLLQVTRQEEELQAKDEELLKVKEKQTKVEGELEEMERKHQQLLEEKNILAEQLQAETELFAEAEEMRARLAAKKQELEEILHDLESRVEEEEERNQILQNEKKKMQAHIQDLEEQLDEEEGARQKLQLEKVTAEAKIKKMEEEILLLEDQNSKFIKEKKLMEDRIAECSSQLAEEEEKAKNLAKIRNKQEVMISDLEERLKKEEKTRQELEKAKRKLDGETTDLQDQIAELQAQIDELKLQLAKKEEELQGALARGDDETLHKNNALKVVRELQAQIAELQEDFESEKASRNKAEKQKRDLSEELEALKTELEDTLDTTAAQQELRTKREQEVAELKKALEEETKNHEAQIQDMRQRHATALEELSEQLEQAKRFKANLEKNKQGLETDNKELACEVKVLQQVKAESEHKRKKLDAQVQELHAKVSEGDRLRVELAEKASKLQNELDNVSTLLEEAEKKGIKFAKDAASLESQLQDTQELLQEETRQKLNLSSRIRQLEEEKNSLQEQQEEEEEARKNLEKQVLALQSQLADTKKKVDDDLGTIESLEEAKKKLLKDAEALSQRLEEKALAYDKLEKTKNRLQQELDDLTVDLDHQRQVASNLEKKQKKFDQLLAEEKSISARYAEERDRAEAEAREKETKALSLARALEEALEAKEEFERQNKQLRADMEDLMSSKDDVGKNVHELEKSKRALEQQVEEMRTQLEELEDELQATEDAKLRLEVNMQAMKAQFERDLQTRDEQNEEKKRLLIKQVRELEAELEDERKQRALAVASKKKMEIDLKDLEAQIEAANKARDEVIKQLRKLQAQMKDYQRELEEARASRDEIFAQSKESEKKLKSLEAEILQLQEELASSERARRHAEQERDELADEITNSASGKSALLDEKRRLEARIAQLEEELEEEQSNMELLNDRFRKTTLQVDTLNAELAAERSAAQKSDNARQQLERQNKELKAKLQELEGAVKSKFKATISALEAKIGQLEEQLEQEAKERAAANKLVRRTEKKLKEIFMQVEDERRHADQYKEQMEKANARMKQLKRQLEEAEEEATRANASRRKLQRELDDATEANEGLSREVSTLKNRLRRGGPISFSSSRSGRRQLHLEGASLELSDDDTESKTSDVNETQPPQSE
Calls of active or inactive are those of the source.
Exercise: for every item that follows, state its recorded Kd.

Guide cases for Kd, answers given:
C[C@@H](NC(=O)c1ncnc(N)c1Cl)c1ncc(C(=O)Nc2cc(C(F)(F)F)c(Cl)cn2)s1	> 30 µM (inactive)
FC(F)(F)c1ccc(/C=C/c2nc(COc3ccc(CCCCn4ccnn4)cc3)co2)cc1	> 30 µM (inactive)

Given the entry CN(C[C@@H]1COCCO1)S(=O)(=O)Nc1ccc2ccc3ncc(-c4cnn(C)c4)cc3c(=O)c2c1 , report its measured Kd. > 30 µM (inactive)

====

Target: STE20-like serine/threonine-protein kinase (Homo sapiens); also: in the data inactive means no Kd found up to 30 µM
Sequence (Q9H2G2 whole entry): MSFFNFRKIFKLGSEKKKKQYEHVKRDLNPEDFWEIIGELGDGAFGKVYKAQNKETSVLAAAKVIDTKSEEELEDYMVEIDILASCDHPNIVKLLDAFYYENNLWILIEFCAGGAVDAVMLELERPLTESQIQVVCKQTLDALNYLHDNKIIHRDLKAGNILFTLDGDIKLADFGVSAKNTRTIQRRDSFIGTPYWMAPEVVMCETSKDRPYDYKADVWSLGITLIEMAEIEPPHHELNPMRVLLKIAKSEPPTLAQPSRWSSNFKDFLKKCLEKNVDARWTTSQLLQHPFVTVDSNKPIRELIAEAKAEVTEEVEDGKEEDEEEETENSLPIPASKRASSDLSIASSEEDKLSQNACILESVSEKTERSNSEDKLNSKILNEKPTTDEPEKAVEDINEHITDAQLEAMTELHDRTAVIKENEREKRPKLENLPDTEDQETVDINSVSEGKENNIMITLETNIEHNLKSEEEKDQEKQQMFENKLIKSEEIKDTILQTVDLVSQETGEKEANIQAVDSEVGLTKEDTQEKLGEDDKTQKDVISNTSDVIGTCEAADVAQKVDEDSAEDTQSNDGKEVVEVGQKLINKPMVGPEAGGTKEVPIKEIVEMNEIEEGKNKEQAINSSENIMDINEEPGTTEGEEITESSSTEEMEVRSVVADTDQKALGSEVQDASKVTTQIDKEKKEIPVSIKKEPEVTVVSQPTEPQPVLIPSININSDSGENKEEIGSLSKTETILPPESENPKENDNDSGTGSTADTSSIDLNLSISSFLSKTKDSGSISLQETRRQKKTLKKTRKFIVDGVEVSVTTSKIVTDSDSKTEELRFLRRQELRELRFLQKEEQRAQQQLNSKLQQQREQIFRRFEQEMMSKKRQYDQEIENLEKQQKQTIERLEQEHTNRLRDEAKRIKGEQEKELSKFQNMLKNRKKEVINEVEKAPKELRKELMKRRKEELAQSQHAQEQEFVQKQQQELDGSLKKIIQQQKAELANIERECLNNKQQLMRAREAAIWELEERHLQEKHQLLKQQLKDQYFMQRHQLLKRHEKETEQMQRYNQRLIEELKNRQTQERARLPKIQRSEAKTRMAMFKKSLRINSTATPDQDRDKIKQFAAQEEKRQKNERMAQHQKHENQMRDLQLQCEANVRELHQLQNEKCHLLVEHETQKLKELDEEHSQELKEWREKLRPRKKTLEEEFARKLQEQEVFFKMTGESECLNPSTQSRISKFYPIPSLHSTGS
Activity calls are given as the source filed them.
Write down the outcome that applies. Available outcomes: active, inactive

Examples with answers:
O=C(Nc1c[nH]nc1-c1nc2cc(CN3CCOCC3)ccc2[nH]1)NC1CC1 [AT-9283]	active
Cn1cc(-c2cnn3c(N)c(Br)c([C@@H]4CCCNC4)nc23)cn1 [SCH-900776]	active
Cn1ncc(Cl)c1-c1cc(C(=O)N[C@H](CN)Cc2ccc(F)c(F)c2)oc1Cl [UPROSERTIB]	inactive
CN(C[C@@H]1COCCO1)S(=O)(=O)Nc1ccc2ccc3ncc(-c4cnn(C)c4)cc3c(=O)c2c1 [MK-2461]	inactive

--- query ---
Hi team, can someone confirm the assay call for C#Cc1cccc(Nc2ncnc3cc(OC)c(OCCCCCCC(=O)NO)cc23)c1 [CUDC-101] ? inactive

====

Target: MAP kinase-activated protein kinase 2 (Homo sapiens); also: in the data inactive means no Kd found up to 30 µM
Sequence (P49137 whole entry): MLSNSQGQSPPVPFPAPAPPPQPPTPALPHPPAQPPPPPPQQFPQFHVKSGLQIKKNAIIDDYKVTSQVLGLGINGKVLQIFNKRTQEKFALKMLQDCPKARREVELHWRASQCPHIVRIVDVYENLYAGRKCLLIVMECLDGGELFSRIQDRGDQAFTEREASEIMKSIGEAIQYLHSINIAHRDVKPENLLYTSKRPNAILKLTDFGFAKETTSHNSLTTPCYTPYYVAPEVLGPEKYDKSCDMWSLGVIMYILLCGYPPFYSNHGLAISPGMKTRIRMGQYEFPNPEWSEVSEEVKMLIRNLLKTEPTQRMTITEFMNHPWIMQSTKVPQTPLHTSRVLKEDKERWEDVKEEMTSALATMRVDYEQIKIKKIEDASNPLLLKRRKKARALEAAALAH
The source made the active and inactive calls.
outcome-measure: Kd

Completed entries (count: 4):
Cc1cc(Nc2ncnc3ccc(NC4=NC(C)(C)CO4)cc23)ccc1Oc1ccn2ncnc2c1	> 30 µM (inactive)
Cc1nc(Nc2n[nH]c3c2CN(C(=O)N[C@H](CN(C)C)c2ccccc2)C3(C)C)c2sccc2n1	> 30 µM (inactive)
Cn1ncc(Cl)c1-c1cc(C(=O)N[C@H](CN)Cc2ccc(F)c(F)c2)oc1Cl	> 30 µM (inactive)
C[C@@H](Oc1cc(C(=O)Nc2ccc(C(=O)N3CCN(C)CC3)cc2)nnc1N)c1c(Cl)ccc(F)c1Cl	> 30 µM (inactive)

Look at each compound and report its Kd.
1. C#Cc1cccc(Nc2ncnc3cc(OC)c(OCCCCCCC(=O)NO)cc23)c1
2. COc1ncc(-c2ccc3nccc(-c4ccnnc4)c3c2)cc1NS(=O)(=O)c1ccc(F)cc1F
3. O=C(Nc1cc(C(F)(F)F)cc(C(F)(F)F)c1)c1cc(Cl)ccc1O
4. CN(C[C@@H]1COCCO1)S(=O)(=O)Nc1ccc2ccc3ncc(-c4cnn(C)c4)cc3c(=O)c2c1
5. CO[C@H]1C[C@@H]2CC[C@@H](C)[C@@](O)(O2)C(=O)C(=O)N2CCCC[C@H]2C(=O)O[C@H]([C@H](C)C[C@@H]2CC[C@@H](OC(=O)C(C)(CO)CO)[C@H](OC)C2)CC(=O)[C@H](C)/C=C(\C)[C@@H](O)[C@@H](OC)C(=O)[C@H](C)C[C@H](C)/C=C/C=C/C=C/1C

1. > 30 µM (inactive)
2. > 30 µM (inactive)
3. > 30 µM (inactive)
4. > 30 µM (inactive)
5. > 30 µM (inactive)

Go through the list and state Kd for each entry.
1. CNC(=O)c1nn(C)c2c1C(C)(C)Cc1cnc(Nc3ccc(N4CCN(C)CC4)cc3)nc1-2
2. COc1cc2c(Nc3ccc(Cl)c(Cl)c3F)ncnc2cc1OC[C@@H]1C[C@@H]2CN(C)C[C@@H]2C1
3. Cc1cc(Nc2ncc(Cl)c(Nc3ccccc3S(=O)(=O)C(C)C)n2)c(OC(C)C)cc1C1CCNCC1
4. Cc1nc2cc(-c3nn(C(C)C)c4ncnc(N)c34)ccc2o1
5. COCC(=O)NC/C=C/c1ccc2ncnc(Nc3ccc(Oc4ccc(C)nc4)c(C)c3)c2c1

1. > 30 µM (inactive)
2. 1.52 µM (active)
3. > 30 µM (inactive)
4. > 30 µM (inactive)
5. > 30 µM (inactive)

Given the entry COCc1c(-c2ccc(NC(=O)Nc3cc(C(F)(F)F)ccc3F)c(F)c2)c2c(N)ncnn2c1CN1CCOCC1 , what Kd was observed with MAP kinase-activated protein kinase 2 (Homo sapiens)? > 30 µM (inactive)

====

Target: Inhibitor of nuclear factor kappa-B kinase subunit epsilon (Homo sapiens, UniProt Q14164); also: in the data inactive means no Kd found up to 30 µM
Sequence (Q14164 whole entry): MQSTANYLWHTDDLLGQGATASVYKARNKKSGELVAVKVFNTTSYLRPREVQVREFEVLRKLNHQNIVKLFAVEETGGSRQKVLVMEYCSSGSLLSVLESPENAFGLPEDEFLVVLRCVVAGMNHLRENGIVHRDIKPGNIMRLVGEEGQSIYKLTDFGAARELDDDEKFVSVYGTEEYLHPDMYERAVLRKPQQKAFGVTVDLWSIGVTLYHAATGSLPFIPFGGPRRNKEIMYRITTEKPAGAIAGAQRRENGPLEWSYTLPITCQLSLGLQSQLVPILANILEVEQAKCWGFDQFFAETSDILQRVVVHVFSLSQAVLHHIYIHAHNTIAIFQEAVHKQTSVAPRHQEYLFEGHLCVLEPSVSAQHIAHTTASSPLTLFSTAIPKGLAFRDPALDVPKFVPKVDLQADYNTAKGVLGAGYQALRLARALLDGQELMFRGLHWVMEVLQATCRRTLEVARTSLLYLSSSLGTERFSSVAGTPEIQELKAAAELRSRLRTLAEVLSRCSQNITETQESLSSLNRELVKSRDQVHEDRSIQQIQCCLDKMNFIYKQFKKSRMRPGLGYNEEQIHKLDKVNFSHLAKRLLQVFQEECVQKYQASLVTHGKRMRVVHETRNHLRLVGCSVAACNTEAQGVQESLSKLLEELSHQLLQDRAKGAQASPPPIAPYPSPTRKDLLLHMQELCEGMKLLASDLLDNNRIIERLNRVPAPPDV
Activity calls are given as the source filed them.
Respond with a class label; see 1.0 for active, 0.0 for inactive

Cc1nc2cc(-n3ncc(C(=O)c4cc5ccccc5[nH]4)c3N)ccc2[nH]1	0.0
NC(=O)Nc1cc(-c2cccc(F)c2)sc1C(=O)N[C@H]1CCCNC1	0.0
Cc1nc(Nc2n[nH]c3c2CN(C(=O)N[C@H](CN(C)C)c2ccccc2)C3(C)C)c2sccc2n1	1.0
CO[C@H]1C[C@@H]2CC[C@@H](C)[C@@](O)(O2)C(=O)C(=O)N2CCCC[C@H]2C(=O)O[C@H]([C@H](C)C[C@@H]2CC[C@@H](OC(=O)C(C)(CO)CO)[C@H](OC)C2)CC(=O)[C@H](C)/C=C(\C)[C@@H](O)[C@@H](OC)C(=O)[C@H](C)C[C@H](C)/C=C/C=C/C=C/1C	0.0
Cc1cc(C(=O)NOCCO)c(Nc2ccc(I)cc2F)n(C)c1=O	0.0
COc1c(OCCCN2CCOCC2)ccc2c1N=C(NC(=O)c1cnc(N)nc1)N1CCN=C21	0.0

For O=C1NC(=O)[C@@H](c2cn3c4c(cccc24)CCC3)[C@@H]1c1c[nH]c2ccccc12 [TIVANTINIB] , which call appears in the assay record? 0.0

Record request — test call for C[C@@H](Oc1cc(C(=O)Nc2ccc(C(=O)N3CCN(C)CC3)cc2)nnc1N)c1c(Cl)ccc(F)c1Cl 0.0

# outcome recorded in this test, key = FC(F)(F)c1ccc(/C=C/c2nc(COc3ccc(CCCCn4ccnn4)cc3)co2)cc1 0.0

# lookup: test call for C[C@@H](NC(=O)c1ncnc(N)c1Cl)c1ncc(C(=O)Nc2cc(C(F)(F)F)c(Cl)cn2)s1 0.0

Per the records of this test, what outcome belongs to COc1ccc(S(=O)(=O)N(C(C)=O)c2ccccc2/C=C/c2cc[n+]([O-])cc2)cc1 ? 0.0

How was CO[C@H]1C[C@@H]2CC[C@@H](C)[C@@](O)(O2)C(=O)C(=O)N2CCCC[C@H]2C(=O)O[C@H]([C@H](C)C[C@@H]2CC[C@@H](OP(C)(C)=O)[C@H](OC)C2)CC(=O)[C@H](C)/C=C(\C)[C@@H](O)[C@@H](OC)C(=O)[C@H](C)C[C@H](C)/C=C/C=C/C=C/1C classified in this test? 0.0

Hi team, can someone confirm the assay call for Cn1cc(-c2cnn3c(N)c(Br)c([C@@H]4CCCNC4)nc23)cn1 ? 0.0

// outcome(item) with item = COCc1c(-c2ccc(NC(=O)Nc3cc(C(F)(F)F)ccc3F)c(F)c2)c2c(N)ncnn2c1CN1CCOCC1 0.0
